# Target Of Assay: ~100 representative kinases (Homo sapiens, UniProt P21802)
# Construct: Recombinant protein kinase domains with a concentration of 2 μM
# Sequence (P21802 22-821): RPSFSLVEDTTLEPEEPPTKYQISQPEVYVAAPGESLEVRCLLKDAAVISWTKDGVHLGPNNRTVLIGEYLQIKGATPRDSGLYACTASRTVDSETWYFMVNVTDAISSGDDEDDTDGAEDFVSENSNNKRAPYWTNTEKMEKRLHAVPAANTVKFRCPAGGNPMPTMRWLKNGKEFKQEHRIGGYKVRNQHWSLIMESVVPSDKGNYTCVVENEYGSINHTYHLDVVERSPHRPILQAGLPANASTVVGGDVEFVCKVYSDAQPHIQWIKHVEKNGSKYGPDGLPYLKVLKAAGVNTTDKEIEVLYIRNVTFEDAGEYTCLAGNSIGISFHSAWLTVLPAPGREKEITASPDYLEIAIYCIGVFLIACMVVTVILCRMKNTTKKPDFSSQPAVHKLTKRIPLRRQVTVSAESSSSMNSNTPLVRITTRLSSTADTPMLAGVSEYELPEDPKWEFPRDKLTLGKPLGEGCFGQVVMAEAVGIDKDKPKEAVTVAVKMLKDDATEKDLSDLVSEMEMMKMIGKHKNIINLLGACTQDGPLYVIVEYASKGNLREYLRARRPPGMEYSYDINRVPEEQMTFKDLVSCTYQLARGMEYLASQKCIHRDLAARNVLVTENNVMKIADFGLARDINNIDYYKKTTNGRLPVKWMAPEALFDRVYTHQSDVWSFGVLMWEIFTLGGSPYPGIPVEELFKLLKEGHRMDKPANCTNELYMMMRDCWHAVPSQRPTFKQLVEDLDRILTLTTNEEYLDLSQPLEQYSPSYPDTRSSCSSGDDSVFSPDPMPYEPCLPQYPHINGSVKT
# Run Description: DSF 100 kinase selectivity screen;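 note: compound tested at 20 µM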
# Format: binding
# Applied Conditions: protein FGFR2; average of three replicates
Test Readout: dTm (K)
Express the result in K but write the number alone.

Q: Field request: dTm | item: COc1cc(NC(=O)C2(C(=O)Nc3cccc(-c4c[nH]c5ncnc(N6CCOCC6)c45)c3)CC2)ccc1F [Compound 21]
Ans: 2.99

Q: And the next one, O=C(Nc1ccc(Cl)cc1)C1(C(=O)Nc2cccc(-c3c[nH]c4ncnc(N5CCOCC5)c34)c2)CC1 [Compound 13] ?
Ans: 3.14

Q: Here is the next molecule: CCc1ccc(NC(=O)C2(C(=O)Nc3cccc(-c4c[nH]c5ncnc(N6CCOCC6)c45)c3)CC2)cc1 [Compound 15]
Ans: 2.28

Q: Now try COc1cc(C(=O)N2CCOCC2)c(F)cc1Nc1nc(N(C)C)c2c(Cl)c[nH]c2n1 [Compound 36] .
Ans: -0.36

Q: Now this one: Cc1cc(F)ccc1NC(=O)C1(C(=O)Nc2cccc(-c3c[nH]c4ncnc(N5CCOCC5)c34)c2)CC1 [Compound 24]
Ans: 2.08

Q: Try the molecule CNC(=O)c1cc(Oc2ccc(NC(=O)Nc3cc(C(C)(C)C)nn3-c3ccc4ncccc4c3)c(F)c2)ccn1 [Rebastinib, reference compound]
Ans: 10.35

Q: Proceed to COc1cc2c(Oc3ccc(NC(=O)C4(C(=O)Nc5ccc(F)cc5)CC4)cc3F)ccnc2cc1OCCCN1CCOCC1 [Foretinib, reference compound]
Ans: 7.20
